test: Aqueous solubility of the compound in DMSO measured after 2 hrs by turbidity assay; type: physicochemical
VALUE_TYPE: solubility kinetic at 2 h (µM)

>>> observed_value("CS(=O)(=O)c1ccc2nc(NCc3ccc(F)cc3)ncc2c1")
30

###

test: Stability in human plasma assessed as remaining compound at 50 uM measured after 2 hrs by LC-MS and HPLC analysis; type: ADME, cell-free; details: read-out: Stability
VALUE_TYPE: remaining at 2 h, 50 µM

>>> observed_value("CS(=O)(=O)c1ccc2nc(NCc3ccc(F)cc3)ncc2c1")
"69.2%"

###

experiment: Stability in human serum assessed as remaining compound at 50 uM measured after 2 hrs by LC-MS and HPLC analysis; format: ADME, cell-free; details: read-out: Stability
VALUE_TYPE: remaining at 2 h, 50 µM (%)

>>> observed_value("CS(=O)(=O)c1ccc2nc(NCc3ccc(F)cc3)ncc2c1")
70

###

system: C2C12; test: Cytotoxicity against mouse C2C12 cells assessed as reduction in cell viability at 0.78 to 100 uM measured after 24 hrs by MTT assay; assay type: toxicity, cell-based; conditions: c2c12, 24 h, dose 0.78-100 µM
VALUE_TYPE: Activity

>>> observed_value("CS(=O)(=O)c1ccc2nc(Nc3ccc(O)cc3)ccc2c1")
"Toxic"
>>> observed_value("CCS(=O)(=O)c1ccc2nc(NCc3ccncc3)ccc2c1")
"Toxic"
>>> observed_value("CS(=O)(=O)c1ccc2nc(NCCc3cc4ccccc4[nH]3)ccc2c1")
"Toxic"
>>> observed_value("CCS(=O)(=O)c1ccc2nc(NCc3cc(OC)cc(OC)c3)ccc2c1")
"Toxic"
>>> observed_value("CCS(=O)(=O)c1ccc2nc(NCc3ccc(F)cc3)ccc2c1")
"Toxic"
>>> observed_value("CCS(=O)(=O)c1ccc2cnc(NCc3ccc(C(F)(F)F)cc3)nc2c1")
"Toxic"
>>> observed_value("CCS(=O)(=O)c1ccc2nc(NCc3ccncc3)ncc2c1")
"Toxic"
>>> observed_value("CCS(=O)(=O)c1ccc2nc(Nc3cc(OC)cc(OC)c3)ncc2c1")
"Toxic"
>>> observed_value("CS(=O)(=O)c1ccc2nc(NCc3ccc4c(c3)OCO4)ncc2c1")
"Toxic"
>>> observed_value("CS(=O)(=O)c1ccc2nc(NCc3ccncc3)ncc2c1")
"Toxic"
>>> observed_value("CS(=O)(=O)c1ccc2nc(NCc3ccncc3)ccc2c1")
"Toxic"
>>> observed_value("CCS(=O)(=O)c1ccc2nc(NCc3ccc(O)cc3)ncc2c1")
"Toxic"
>>> observed_value("CCS(=O)(=O)c1ccc2nc(Nc3ccc(F)cc3)ncc2c1")
"Toxic"
>>> observed_value("CCS(=O)(=O)c1ccc2nc(Nc3cc(OC)cc(OC)c3)ccc2c1")
"Toxic"
>>> observed_value("CCS(=O)(=O)c1ccc2nc(NCCc3cc4ccccc4[nH]3)ccc2c1")
"Toxic"
>>> observed_value("CS(=O)(=O)c1ccc2nc(NCc3ccc(O)cc3)ncc2c1")
"Toxic"
>>> observed_value("CCS(=O)(=O)c1ccc2nc(NCc3ccc(F)cc3)ncc2c1")
"Toxic"
>>> observed_value("CS(=O)(=O)c1ccc2nc(Nc3ccc(F)cc3)ccc2c1")
"Toxic"
>>> observed_value("CC(C)(C)c1ccc(Nc2ccc3cc(S(C)(=O)=O)ccc3n2)cc1")
"Toxic"
>>> observed_value("CS(=O)(=O)c1ccc2nc(NCc3ccc(F)cc3)ncc2c1")
"Toxic"
>>> observed_value("CS(=O)(=O)c1ccc2nc(NCCc3cc4ccccc4[nH]3)ncc2c1")
"Toxic"
>>> observed_value("COc1ccc(Nc2ncc3cc(S(C)(=O)=O)ccc3n2)cc1")
"Toxic"
>>> observed_value("CCS(=O)(=O)c1ccc2nc(NCc3cc(OC)cc(OC)c3)ncc2c1")
"Toxic"
>>> observed_value("CS(=O)(=O)c1ccc2nc(Nc3ccc4c(c3)OCO4)ccc2c1")
"Toxic"
>>> observed_value("CS(=O)(=O)c1ccc2nc(NCc3ccc(C(F)(F)F)cc3)ncc2c1")
"Toxic"
>>> observed_value("CS(=O)(=O)c1ccc2nc(NCc3ccc(O)cc3)ccc2c1")
"Toxic"
>>> observed_value("CC(C)(C)c1ccc(Nc2ncc3cc(S(C)(=O)=O)ccc3n2)cc1")
"Toxic"
>>> observed_value("CCS(=O)(=O)c1ccc2nc(Nc3ccc(OC)cc3)ncc2c1")
"Toxic"
>>> observed_value("CCS(=O)(=O)c1ccc2nc(Nc3ccc4c(c3)OCO4)ncc2c1")
"Toxic"
>>> observed_value("CS(=O)(=O)c1ccc2nc(Nc3ccc4c(c3)OCO4)ncc2c1")
"Toxic"
>>> observed_value("CC(C)(C)c1ccc(CNc2ncc3cc(S(C)(=O)=O)ccc3n2)cc1")
"Toxic"
>>> observed_value("CCS(=O)(=O)c1ccc2nc(NCc3ccc(OC)cc3)ccc2c1")
"Toxic"
>>> observed_value("CCS(=O)(=O)c1ccc2nc(Nc3ccc(O)cc3)ncc2c1")
"Toxic"
>>> observed_value("CCS(=O)(=O)c1ccc2nc(NCCc3cc4ccccc4[nH]3)ncc2c1")
"Toxic"
>>> observed_value("CCS(=O)(=O)c1ccc2nc(NCc3ccc(C(C)(C)C)cc3)ncc2c1")
"Toxic"
>>> observed_value("CCS(=O)(=O)c1ccc2nc(NCc3ccc4c(c3)OCO4)ncc2c1")
"Toxic"
